From: patent US20040053822A1

Here, each record is paired with measured pIC50 data.
- system_name: HLA-B*0702 (Homo sapiens, UniProt P01889)
- assay_overview: Purified HLA class I peptide binding assay, B*0702
- assay_conditions: binding affinity, HLA-B7 supermotif-bearing peptides
Residues, ends and D or L forms follow the SMILES beside them.
Field pIC50 (float): negative decimal logarithm of the concentration in molar.

{"columns": ["molecule", "system_name", "pIC50"],
 "data": [
  ["CC[C@H](C)[C@H](NC(=O)[C@H](CC(C)C)NC(=O)[C@H](CC(C)C)NC(=O)CNC(=O)[C@H](C)NC(=O)[C@H](CCCCN)NC(=O)[C@@H]1CCCN1C(=O)[C@@H](N)Cc1ccccc1)C(=O)N[C@H](C(=O)N[C@H](C(=O)O)C(C)C)[C@@H](C)CC (H-FPKAGLLIIV-OH; N-terminus and C-terminus assumed)", "HLA-B*0702 (Homo sapiens, UniProt P01889)", 6.66]
]}

Ask: # pIC50 lookup, item CC[C@H](C)[C@H](NC(=O)[C@H](CO)NC(=O)[C@H](CCC(N)=O)NC(=O)[C@H](CO)NC(=O)[C@H](Cc1c[nH]c2ccccc12)NC(=O)[C@H](CC(C)C)NC(=O)[C@@H]1CCCN1C(=O)[C@@H](N)Cc1ccccc1)C(=O)O
Result: 6.91

Ask: # pIC50 lookup, item CSCC[C@H](NC(=O)[C@@H](NC(=O)[C@@H](NC(=O)[C@@H]1CCCN1C(=O)[C@@H](N)Cc1ccccc1)[C@@H](C)O)[C@@H](C)O)C(=O)N[C@@H](CC(N)=O)C(=O)N[C@@H](Cc1ccc(O)cc1)C(=O)N1CCC[C@H]1C(=O)N[C@@H](CC(C)C)C(=O)O (H-FPTTMNYPL-OH; N-terminus and C-terminus assumed)
Result: 8.19

----------
- system_name: HLA-B*3501 (Homo sapiens, UniProt P01889, A329T/A93T/A95T/C349S/D201E/D98Y/E176V/E187L/E204Q/E69T/I218V/K202T/L119I/Q94N/R155S/R180L/S121R/S35A/S48A/T118I/V127L/V306I/V36M/Y140S/Y91F)
- assay_overview: Purified HLA class I peptide binding assay, B*3501
- assay_conditions: binding affinity, HLA-B7 supermotif-bearing peptides
observable: pIC50
Field pIC50 (float): negative decimal logarithm of the concentration in molar.

Use the examples below as a reference point.
{"columns": ["structure_smiles_string", "pIC50"],
 "data": [
  ["CC[C@H](C)[C@H](NC(=O)[C@H](CO)NC(=O)[C@H](CCC(N)=O)NC(=O)[C@H](CO)NC(=O)[C@H](Cc1c[nH]c2ccccc12)NC(=O)[C@H](CC(C)C)NC(=O)[C@@H]1CCCN1C(=O)[C@@H](N)Cc1ccccc1)C(=O)O", 5.99],
  ["CC[C@H](C)[C@H](NC(=O)[C@H](Cc1ccc(O)cc1)NC(=O)[C@H](CO)NC(=O)[C@@H](NC(=O)[C@H](CCC(=O)O)NC(=O)[C@@H](NC(=O)[C@H](CC(C)C)NC(=O)[C@H](C)NC(=O)[C@H](CCCNC(=N)N)NC(=O)[C@@H]1CCCN1C(=O)[C@@H](N)Cc1ccccc1)C(C)C)[C@@H](C)O)C(=O)O", 5.26]
]}

In the following, a different compound is considered.
Ask: # pIC50 lookup, item CC[C@H](C)[C@H](NC(=O)[C@H](Cc1ccccc1)NC(=O)[C@@H](NC(=O)[C@H](Cc1ccc(O)cc1)NC(=O)[C@H](CC(C)C)NC(=O)[C@H](Cc1c[nH]cn1)NC(=O)CNC(=O)[C@@H](NC(=O)[C@@H]1CCCN1C(=O)[C@@H](N)Cc1ccccc1)[C@@H](C)CC)[C@@H](C)CC)C(=O)O
Result: 6.86
